Record: compiled IC50 on High affinity nerve growth factor receptor (Homo sapiens) from multiple reports.

Below are worked cases with known answers.
CCCS(=O)(=O)Nc1ccc(F)c(C(=O)c2c[nH]c3ncc(OC)cc23)c1F : ≤ 10000 nM
Cc1c(C#Cc2cnc3ccc(N4CC[C@H](O)C4)nn23)cccc1C(=O)Nc1cccc(C(F)(F)F)c1 : < 10 nM
COCCN1C[C@@H](NC(=O)Nc2c(Br)c(-c3ccccc3)nn2-c2ccccc2)[C@H](c2ccc(F)c(F)c2)C1 : < 100 nM

Consider the additional compound presented here.
Identify measured IC50 associated with Fc1cc(F)cc(Sc2ccc3[nH]nc(/C=C/c4ccccn4)c3c2)c1 9.9 nM
